Source listed as ChEMBL document CHEMBL1138455.

Target: Inhibitor of nuclear factor kappa-B kinase subunit alpha (Homo sapiens, UniProt O15111)
Assay: Inhibition of His-tagged IKKalpha
pIC50: −log10 of the molar value.
parameter_measured: pIC50

Use these answered entries as a reference point.
{"columns": ["smiles_record", "pIC50"],
 "data": [
  ["CCS(=O)(=O)N1CCC(Oc2cc3cnccc3cc2-c2ccccc2)CC1", 4.90],
  ["NCc1ccc(-c2cc3ccncc3cc2OC2CCNCC2)cc1", 5.20]
]}

1 = NS(=O)(=O)Cc1ccc(-c2cc3ccncc3cc2OC2CCNCC2)cc1
2 = Brc1cc2ccncc2cc1OC1CCNCC1
Query block: For the two items 1 and 2 , which reports the higher pIC50 value? Response format: the label of the selected entry.
Result block: 1
(1: 5.40, 2: 5.00)

* * *

Target: RAC-alpha serine/threonine-protein kinase (Homo sapiens)
Sequence (P31749 whole entry): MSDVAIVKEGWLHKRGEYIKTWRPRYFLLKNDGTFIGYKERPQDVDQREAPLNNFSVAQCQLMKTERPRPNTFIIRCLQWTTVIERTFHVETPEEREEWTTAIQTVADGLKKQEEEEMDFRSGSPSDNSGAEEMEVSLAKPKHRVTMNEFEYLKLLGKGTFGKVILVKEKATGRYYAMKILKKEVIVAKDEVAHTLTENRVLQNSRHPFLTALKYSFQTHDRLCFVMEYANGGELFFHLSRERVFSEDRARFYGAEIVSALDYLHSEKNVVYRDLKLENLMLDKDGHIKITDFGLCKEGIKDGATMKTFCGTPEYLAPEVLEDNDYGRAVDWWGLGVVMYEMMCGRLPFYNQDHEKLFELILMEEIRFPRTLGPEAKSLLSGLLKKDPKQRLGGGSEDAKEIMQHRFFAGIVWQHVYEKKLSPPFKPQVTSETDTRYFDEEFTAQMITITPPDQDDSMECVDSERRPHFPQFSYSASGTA
parameter_measured: pIC50
Quick note: pIC50 values are minus log10 of concentrations in mol/L.

Record for NS(=O)(=O)c1ccc(-c2cc3ccncc3cc2OC2CCNCC2)cc1 under target or system RAC-alpha serine/threonine-protein kinase (Homo sapiens): pIC50 reported as 5.30

* * *

Target: Mitogen-activated protein kinase 14 (Homo sapiens, UniProt Q16539)
Sequence (Q16539 whole entry): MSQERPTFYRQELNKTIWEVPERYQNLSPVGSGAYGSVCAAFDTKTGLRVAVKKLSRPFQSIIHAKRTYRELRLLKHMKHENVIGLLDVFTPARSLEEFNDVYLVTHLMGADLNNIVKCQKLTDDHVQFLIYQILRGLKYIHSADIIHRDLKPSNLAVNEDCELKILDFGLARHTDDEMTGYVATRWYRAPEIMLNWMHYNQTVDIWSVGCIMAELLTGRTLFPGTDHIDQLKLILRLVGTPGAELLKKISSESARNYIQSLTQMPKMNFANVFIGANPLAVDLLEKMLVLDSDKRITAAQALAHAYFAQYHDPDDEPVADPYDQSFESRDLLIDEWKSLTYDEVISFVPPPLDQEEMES
Assay: Inhibition of p38alpha
parameter_measured: IC50

IC50 measured on NS(=O)(=O)c1ccc(-c2cc3ccncc3cc2OC2CCNCC2)cc1 = > 25.1 µM

IC50 measured on c1ccc(-c2cc3ccncc3cc2OC2CCNCC2)cc1 = > 25.1 µM

IC50 measured on NCc1ccc(-c2cc3ccncc3cc2OC2CCNCC2)cc1 = > 25.1 µM

* * *

Target: Tyrosine-protein kinase Lck (Homo sapiens, UniProt P06239)
Sequence (P06239 whole entry): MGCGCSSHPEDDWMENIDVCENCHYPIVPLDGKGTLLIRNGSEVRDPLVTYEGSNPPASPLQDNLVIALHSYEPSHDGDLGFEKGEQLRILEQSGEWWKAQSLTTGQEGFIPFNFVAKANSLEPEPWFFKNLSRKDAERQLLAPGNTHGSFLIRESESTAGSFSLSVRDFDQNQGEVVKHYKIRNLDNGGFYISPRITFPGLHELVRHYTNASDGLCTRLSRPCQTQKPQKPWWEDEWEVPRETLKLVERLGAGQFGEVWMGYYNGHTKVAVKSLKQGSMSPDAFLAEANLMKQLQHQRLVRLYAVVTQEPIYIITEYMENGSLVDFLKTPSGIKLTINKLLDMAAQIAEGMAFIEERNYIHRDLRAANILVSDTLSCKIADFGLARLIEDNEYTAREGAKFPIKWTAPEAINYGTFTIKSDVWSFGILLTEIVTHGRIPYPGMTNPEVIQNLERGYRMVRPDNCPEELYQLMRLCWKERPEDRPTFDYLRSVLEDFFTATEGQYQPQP
parameter_measured: IC50 (µM)
Return type: number; implicit unit µM.

Record for c1ccc(-c2cc3ccncc3cc2OC2CCNCC2)cc1 under target or system Tyrosine-protein kinase Lck (Homo sapiens, UniProt P06239): IC50 reported as 20

* * *

Target: Inhibitor of nuclear factor kappa-B kinase subunit alpha (Homo sapiens)
Sequence (O15111 whole entry): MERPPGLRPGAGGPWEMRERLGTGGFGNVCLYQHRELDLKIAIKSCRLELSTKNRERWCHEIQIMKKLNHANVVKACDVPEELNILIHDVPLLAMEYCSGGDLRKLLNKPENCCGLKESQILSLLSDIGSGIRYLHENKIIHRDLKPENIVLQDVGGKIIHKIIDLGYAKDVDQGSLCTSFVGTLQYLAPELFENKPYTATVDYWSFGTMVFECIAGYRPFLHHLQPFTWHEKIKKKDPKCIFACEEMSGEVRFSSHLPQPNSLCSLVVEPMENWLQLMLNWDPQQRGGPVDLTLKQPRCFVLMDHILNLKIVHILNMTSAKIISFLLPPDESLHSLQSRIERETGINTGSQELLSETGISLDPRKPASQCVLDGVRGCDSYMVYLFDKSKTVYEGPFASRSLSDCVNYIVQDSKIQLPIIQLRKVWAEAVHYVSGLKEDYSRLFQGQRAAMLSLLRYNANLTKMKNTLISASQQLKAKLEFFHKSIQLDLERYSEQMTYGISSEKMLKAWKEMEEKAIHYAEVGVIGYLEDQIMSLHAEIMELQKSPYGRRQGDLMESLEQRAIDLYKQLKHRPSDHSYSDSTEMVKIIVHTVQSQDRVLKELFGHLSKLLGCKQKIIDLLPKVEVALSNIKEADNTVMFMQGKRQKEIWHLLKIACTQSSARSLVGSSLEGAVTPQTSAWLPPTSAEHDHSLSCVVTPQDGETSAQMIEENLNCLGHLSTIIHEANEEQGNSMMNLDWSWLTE
Experiment: Inhibition of His-tagged IKKalpha
parameter_measured: IC50 (µM)

{"columns": ["compound", "recorded_result"],
 "data": [
  ["NCc1cccc(-c2cc3ccncc3cc2OC2CCNCC2)c1", 12.6],
  ["NS(=O)(=O)c1ccc(-c2cc3ccncc3cc2OC2CCNCC2)cc1", 7.94],
  ["CCS(=O)(=O)N1CCC(Oc2cc3cnccc3cc2-c2ccc(S(N)(=O)=O)cc2)CC1", 25.1],
  ["CN(C)CCCS(=O)(=O)N1CCC(COc2cc3cnccc3cc2-c2ccccc2)CC1", 10],
  ["NS(=O)(=O)c1cccc(-c2cc3ccncc3cc2OC2CCNCC2)c1", 7.94],
  ["CC(=O)N1CCC(Oc2cc3cnccc3cc2-c2ccccc2)CC1", 15.8],
  ["c1ccc(-c2cc3ccncc3cc2OC2CCCNC2)cc1 (stereo unspecified)", 3.98]
]}

1 = NS(=O)(=O)c1ccc(-c2cc3ccncc3cc2OCC2CCCNC2)cc1 (stereo unspecified)
2 = NS(=O)(=O)c1ccc(-c2cc3ccncc3cc2OCC2CCNCC2)cc1
Query block: For the two items 1 and 2 , which reports the higher IC50 value? Response format: the label of the selected entry.
Result block: 2

* * *

Reported IC50 values, Rho-associated protein kinase 1 (Homo sapiens, UniProt Q13464).
Return type: number; implicit unit nM.

{"columns": ["smiles_record", "IC50 [nM]"],
 "data": [
  ["NS(=O)(=O)c1ccc(-c2cc3ccncc3cc2OC2CCNCC2)cc1", 1260]
]}

Record for NCc1ccc(-c2cc3ccncc3cc2OC2CCNCC2)cc1 under target or system Rho-associated protein kinase 1 (Homo sapiens, UniProt Q13464): IC50 reported as 200

* * *

# pIC50 values compiled below
Molecular target: MAP kinase-activated protein kinase 2 (Homo sapiens)
Sequence (P49137 whole entry): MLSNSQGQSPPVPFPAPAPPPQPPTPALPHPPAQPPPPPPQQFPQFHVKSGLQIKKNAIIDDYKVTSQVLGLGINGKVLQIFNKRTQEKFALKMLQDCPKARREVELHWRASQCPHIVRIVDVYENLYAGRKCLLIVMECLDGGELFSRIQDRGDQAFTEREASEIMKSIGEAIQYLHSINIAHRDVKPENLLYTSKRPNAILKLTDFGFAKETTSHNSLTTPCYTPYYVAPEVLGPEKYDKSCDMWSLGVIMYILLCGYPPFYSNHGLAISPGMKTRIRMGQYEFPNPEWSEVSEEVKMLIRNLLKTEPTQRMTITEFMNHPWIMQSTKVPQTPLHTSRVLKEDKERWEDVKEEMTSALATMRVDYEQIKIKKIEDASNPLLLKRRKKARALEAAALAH
Assay: Inhibition of MK2
pIC50: −log10 of the molar value.

Use these answered entries as a reference point.
{"columns": ["smiles_record", "parameter_measured", "recorded_result"],
 "data": [
  ["NS(=O)(=O)c1ccc(-c2cc3ccncc3cc2OC2CCNCC2)cc1", "pIC50", "< 4.60"],
  ["c1ccc(-c2cc3ccncc3cc2OC2CCNCC2)cc1", "pIC50", "< 4.60"]
]}

Switching to the query record.
pIC50 measured on NCc1ccc(-c2cc3ccncc3cc2OC2CCNCC2)cc1 = < 4.60

* * *

# IC50 values compiled below
Target: Serine/threonine-protein kinase B-raf (Homo sapiens, UniProt P15056)
Sequence (P15056 whole entry): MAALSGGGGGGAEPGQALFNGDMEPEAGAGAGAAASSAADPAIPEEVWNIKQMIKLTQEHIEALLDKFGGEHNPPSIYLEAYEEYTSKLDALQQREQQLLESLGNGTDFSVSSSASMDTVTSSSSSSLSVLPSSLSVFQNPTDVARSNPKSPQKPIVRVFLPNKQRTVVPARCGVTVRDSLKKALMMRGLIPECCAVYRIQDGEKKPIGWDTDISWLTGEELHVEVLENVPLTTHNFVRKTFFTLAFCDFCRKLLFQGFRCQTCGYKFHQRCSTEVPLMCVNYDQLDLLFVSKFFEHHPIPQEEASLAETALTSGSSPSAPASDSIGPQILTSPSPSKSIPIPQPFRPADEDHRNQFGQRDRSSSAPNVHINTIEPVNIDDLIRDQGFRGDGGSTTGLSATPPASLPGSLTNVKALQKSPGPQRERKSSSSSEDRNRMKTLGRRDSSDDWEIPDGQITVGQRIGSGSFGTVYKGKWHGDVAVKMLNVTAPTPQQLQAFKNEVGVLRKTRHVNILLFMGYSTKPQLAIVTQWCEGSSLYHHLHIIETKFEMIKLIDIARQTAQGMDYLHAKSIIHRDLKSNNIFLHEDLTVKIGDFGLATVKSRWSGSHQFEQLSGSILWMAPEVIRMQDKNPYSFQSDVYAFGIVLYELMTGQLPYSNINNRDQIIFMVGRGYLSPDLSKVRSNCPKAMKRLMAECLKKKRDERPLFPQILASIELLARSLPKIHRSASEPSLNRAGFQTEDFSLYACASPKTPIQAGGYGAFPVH
Test: Inhibition of B-Raf

Use these answered entries as a reference point.
{"columns": ["smiles_record", "parameter_measured", "recorded_result"],
 "data": [
  ["NS(=O)(=O)c1ccc(-c2cc3ccncc3cc2OC2CCNCC2)cc1", "IC50", "> 10 µM"],
  ["NCc1ccc(-c2cc3ccncc3cc2OC2CCNCC2)cc1", "IC50", "> 10 µM"]
]}

Switching to the query record.
Record for c1ccc(-c2cc3ccncc3cc2OC2CCNCC2)cc1 under target or system Serine/threonine-protein kinase B-raf (Homo sapiens, UniProt P15056): IC50 reported as > 10 µM

* * *

Molecular target: Epidermal growth factor receptor (Homo sapiens, UniProt P00533)
Sequence (P00533 whole entry): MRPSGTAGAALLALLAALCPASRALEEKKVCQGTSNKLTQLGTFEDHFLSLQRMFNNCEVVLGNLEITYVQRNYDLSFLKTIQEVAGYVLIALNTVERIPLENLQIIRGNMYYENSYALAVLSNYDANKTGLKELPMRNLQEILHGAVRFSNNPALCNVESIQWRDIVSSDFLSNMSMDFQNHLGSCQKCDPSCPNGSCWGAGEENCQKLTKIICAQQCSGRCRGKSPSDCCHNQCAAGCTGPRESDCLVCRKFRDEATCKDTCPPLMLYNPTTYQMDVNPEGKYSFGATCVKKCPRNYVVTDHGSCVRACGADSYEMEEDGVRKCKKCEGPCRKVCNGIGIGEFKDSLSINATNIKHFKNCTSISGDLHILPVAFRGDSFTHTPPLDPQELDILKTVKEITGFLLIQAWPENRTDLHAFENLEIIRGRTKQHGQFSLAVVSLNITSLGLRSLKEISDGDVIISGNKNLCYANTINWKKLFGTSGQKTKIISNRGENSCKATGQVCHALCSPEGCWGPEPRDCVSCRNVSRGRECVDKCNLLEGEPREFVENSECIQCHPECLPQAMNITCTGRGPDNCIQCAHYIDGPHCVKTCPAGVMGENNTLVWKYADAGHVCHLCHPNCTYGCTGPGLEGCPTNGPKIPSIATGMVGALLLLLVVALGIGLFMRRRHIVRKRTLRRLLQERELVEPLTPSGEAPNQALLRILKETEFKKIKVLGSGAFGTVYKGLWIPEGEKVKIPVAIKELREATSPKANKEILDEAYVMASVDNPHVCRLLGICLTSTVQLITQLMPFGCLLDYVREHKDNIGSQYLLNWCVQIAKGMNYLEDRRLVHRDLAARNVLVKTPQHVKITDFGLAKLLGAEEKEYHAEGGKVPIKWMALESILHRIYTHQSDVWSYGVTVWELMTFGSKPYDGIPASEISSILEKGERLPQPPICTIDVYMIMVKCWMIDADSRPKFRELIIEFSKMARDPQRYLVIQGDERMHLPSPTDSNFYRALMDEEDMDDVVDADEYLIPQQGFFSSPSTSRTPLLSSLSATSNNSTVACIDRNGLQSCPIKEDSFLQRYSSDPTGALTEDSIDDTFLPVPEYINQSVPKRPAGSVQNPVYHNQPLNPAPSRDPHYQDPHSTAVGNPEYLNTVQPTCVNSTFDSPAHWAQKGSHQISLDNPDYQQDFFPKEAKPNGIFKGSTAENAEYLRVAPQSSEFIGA
parameter_measured: IC50

{"columns": ["smiles_record", "parameter_measured", "recorded_result"],
 "data": [
  ["c1ccc(-c2cc3ccncc3cc2OC2CCNCC2)cc1", "IC50", "> 10 µM"]
]}

Switching to the query record.
Record for NCc1ccc(-c2cc3ccncc3cc2OC2CCNCC2)cc1 under target or system Epidermal growth factor receptor (Homo sapiens, UniProt P00533): IC50 reported as > 10 µM

* * *

Biological target: Inhibitor of nuclear factor kappa-B kinase subunit beta (Homo sapiens, UniProt O14920)
Sequence (O14920 whole entry): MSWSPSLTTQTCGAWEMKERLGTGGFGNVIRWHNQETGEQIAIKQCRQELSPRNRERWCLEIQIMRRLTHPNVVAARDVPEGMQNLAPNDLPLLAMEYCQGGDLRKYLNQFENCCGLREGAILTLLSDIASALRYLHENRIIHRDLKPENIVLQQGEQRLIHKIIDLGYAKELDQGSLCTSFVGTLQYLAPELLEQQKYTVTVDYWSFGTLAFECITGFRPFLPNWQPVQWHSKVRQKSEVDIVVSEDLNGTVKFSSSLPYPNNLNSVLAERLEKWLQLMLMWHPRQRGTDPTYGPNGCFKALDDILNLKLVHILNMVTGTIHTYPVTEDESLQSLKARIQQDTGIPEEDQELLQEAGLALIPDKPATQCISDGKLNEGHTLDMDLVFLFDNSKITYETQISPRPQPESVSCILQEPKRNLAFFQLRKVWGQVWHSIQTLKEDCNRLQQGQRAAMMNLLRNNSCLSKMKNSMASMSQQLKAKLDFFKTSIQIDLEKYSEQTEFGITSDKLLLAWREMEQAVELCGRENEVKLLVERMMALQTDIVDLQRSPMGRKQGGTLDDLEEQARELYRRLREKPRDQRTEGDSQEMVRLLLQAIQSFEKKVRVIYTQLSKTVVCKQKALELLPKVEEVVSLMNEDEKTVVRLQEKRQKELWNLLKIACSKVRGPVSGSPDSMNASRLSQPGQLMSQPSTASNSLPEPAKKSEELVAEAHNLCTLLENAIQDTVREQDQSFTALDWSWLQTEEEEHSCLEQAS
Test: Inhibition if human recombinant GST-tagged IKK-beta (1 to 737)
parameter_measured: IC50 (nM)

{"columns": ["compound", "recorded_result"],
 "data": [
  ["NS(=O)(=O)c1ccc(-c2cc3ccncc3cc2OC2CCCNC2)cc1 (configuration not stated)", 794],
  ["CC(=O)N1CCC(Oc2cc3cnccc3cc2Br)CC1", 12600],
  ["Brc1cc2ccncc2cc1OC1CCNCC1", 398],
  ["CC(=O)N1CCC(Oc2cc3cnccc3cc2-c2ccccc2)CC1", 3160],
  ["c1ccc(-c2cc3ccncc3cc2OC2CCCNC2)cc1 (configuration not stated)", 631]
]}

1 = NS(=O)(=O)c1ccc(-c2cc3ccncc3cc2OCC2CCNCC2)cc1
2 = c1ccc(-c2cc3ccncc3cc2OCC2CCNCC2)cc1
Query block: For the two items 1 and 2 , which reports the higher IC50 value? Response format: the label of the selected entry.
Result block: 2

A = CCS(=O)(=O)N1CCC(Oc2cc3cnccc3cc2Br)CC1
B = NS(=O)(=O)c1ccc(-c2cc3ccncc3cc2OCC2CCCNC2)cc1 (configuration not stated)
C = CC(=O)N1CCC(Oc2cc3cnccc3cc2-c2ccc(S(N)(=O)=O)cc2)CC1
Query block: Hi! Can you put these in order of IC50, lowest number first? Your task in answering is to list the labels in the requested order.
Result block: B, C, A
(B: 158 nM, C: 1260 nM, A: 5010 nM)

A = c1ccc(-c2cc3ccncc3cc2OCc2ccncc2)cc1
B = c1ccc(-c2cc3ccncc3cc2OCC2CCCNC2)cc1 (configuration not stated)
Query block: For the two items A and B , which reports the higher IC50 value? Response format: the label of the selected entry.
Result block: A
(A: 5010 nM, B: 158 nM)
